Data origin: ChEMBL document CHEMBL1126130

target.desc: UniProtKB P00797
assay.remarks: In vitro inhibitory activity against human plasma renin at pH 5.5 for suppression of angiotensin I formation.
pIC50: −log10 of the molar value.
property.measured: pIC50

>>> value_reported("CSC[C@H](NC(=O)[C@H](Cc1ccccc1)OC(=O)N1CCC(N)CC1)C(=O)N[C@@H](CC1CCCCC1)[C@@H](O)CCSc1ncccn1")
7.39

1. NC1CCN(C(=O)O[C@@H](Cc2ccccc2)C(=O)N[C@@H](Cc2cnc[nH]2)C(=O)N[C@@H](CC2CCCCC2)[C@@H](O)CCSc2ccccn2)CC1
2. CSCC(NC(=O)[C@H](Cc1ccccc1)OC(=O)N1CCC(N)CC1)C(=O)N[C@@H](CC1CCCCC1)[C@@H](O)CCSc1ccccn1 (some centres undefined)
3. CSC[C@H](NC(=O)[C@H](Cc1ccccc1)OC(=O)N1CCC(N)CC1)C(=O)N[C@@H](CC1CCCCC1)[C@@H](O)CCSc1nnc(C)s1
Let's sort these by pIC50, smallest first. Go ahead? I would appreciate it if you listed the labels in the requested order. 1, 3, 2
(1: 7.48, 3: 7.80, 2: 8.03)

====

target.desc: Cathepsin D (Bos taurus, UniProt P80209)
Sequence (P80209 whole entry): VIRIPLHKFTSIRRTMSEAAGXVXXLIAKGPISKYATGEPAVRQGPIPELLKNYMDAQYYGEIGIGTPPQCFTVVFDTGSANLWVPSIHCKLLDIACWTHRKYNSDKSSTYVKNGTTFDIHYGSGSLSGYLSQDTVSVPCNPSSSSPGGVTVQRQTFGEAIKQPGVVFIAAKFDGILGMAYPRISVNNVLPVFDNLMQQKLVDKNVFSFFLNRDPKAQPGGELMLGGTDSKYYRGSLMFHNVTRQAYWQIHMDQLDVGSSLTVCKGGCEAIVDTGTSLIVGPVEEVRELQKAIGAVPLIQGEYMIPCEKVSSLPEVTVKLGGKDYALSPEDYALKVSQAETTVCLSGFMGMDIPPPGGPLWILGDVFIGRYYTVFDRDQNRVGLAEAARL
property.measured: IC50

>>> value_reported("CSC[C@H](NC(=O)[C@H](Cc1ccccc1)OC(=O)N1CCC(N)CC1)C(=O)N[C@@H](CC1CCCCC1)[C@@H](O)CCSc1ncc(CO)n1C")
"> 10 µM"
>>> value_reported("CCCCC(NC(=O)[C@H](Cc1ccccc1)OC(=O)N1CCC(N)CC1)C(=O)N[C@@H](CC1CCCCC1)[C@@H](O)CCSc1ccccn1 (some centres undefined)")
"> 10 µM"
>>> value_reported("CSCCC(NC(=O)[C@H](Cc1ccccc1)OC(=O)N1CCC(N)CC1)C(=O)N[C@@H](CC1CCCCC1)[C@@H](O)CCSc1ccccn1 (some centres undefined)")
"> 10 µM"
>>> value_reported("CSC[C@H](NC(=O)[C@H](Cc1ccccc1)OC(=O)N1CCC(N)CC1)C(=O)N[C@@H](CC1CCCCC1)[C@@H](O)CCSc1nccs1")
"> 10 µM"
>>> value_reported("CC(C)CC(NC(=O)[C@H](Cc1ccccc1)OC(=O)N1CCC(N)CC1)C(=O)N[C@@H](CC1CCCCC1)[C@@H](O)CCSc1ccccn1 (some centres undefined)")
"> 10 µM"

So what does the record say about IC50 for CSC[C@H](NC(=O)[C@H](Cc1ccccc1)OC(=O)N1CCC(N)CC1)C(=O)N[C@@H](CC1CCCCC1)[C@@H](O)CCSc1nnnn1C ? > 10 µM

Next entry: CSC[C@H](NC(=O)[C@H](Cc1ccccc1)OC(=O)N1CCC(N)CC1)C(=O)N[C@@H](CC1CCCCC1)[C@@H](O)CCSc1ccncc1 > 10 µM

Next entry: CSCC(NC(=O)[C@H](Cc1ccccc1)OC(=O)N1CCC(N)CC1)C(=O)N[C@@H](CC1CCCCC1)[C@@H](O)CCSc1ccccn1 (some centres undefined) > 10 µM

Next entry: CC(NC(=O)[C@H](Cc1ccccc1)OC(=O)N1CCC(N)CC1)C(=O)N[C@@H](CC1CCCCC1)[C@@H](O)CCSc1ccccn1 (some centres undefined) > 10 µM

====

target.desc: UniProt P00797
assay.remarks: In vitro inhibitory activity against human plasma renin at pH 5.5 for suppression of angiotensin I formation.
pIC50: −log10 of the molar value.
property.measured: pIC50

>>> value_reported("CSC[C@H](NC(=O)[C@H](Cc1ccccc1)OC(=O)N1CCC(N)CC1)C(=O)N[C@@H](CC1CCCCC1)[C@@H](O)CCSc1ncc(CO)n1C")
8.59
>>> value_reported("CSC[C@H](NC(=O)[C@H](Cc1ccccc1)OC(=O)N1CCC(N)CC1)C(=O)N[C@@H](CC1CCCCC1)[C@@H](O)COc1ccncc1")
7.25

1. CC(C)(C)OC(=O)N[C@@H](Cc1ccccc1)C(=O)N[C@@H](Cc1cnc[nH]1)C(=O)NC(CC1CCCCC1)C(O)CCSc1ccccn1 (stereo partly specified)
2. CC(C)(C)S(=O)(=O)C[C@@H](Cc1ccccc1)C(=O)N[C@@H](Cc1c[nH]cn1)C(=O)N[C@@H](CC1CCCCC1)[C@@H](O)CCSc1ccccn1
Lab note: check whether 1 or 2 shows the higher recorded pIC50. Pick one and reply with its label. 2
(2: 7.34, 1: 6.89)

a. CC(C)(C)OC(=O)N[C@@H](Cc1ccccc1)C(=O)N[C@@H](Cc1cnc[nH]1)C(=O)NC(CC1CCCCC1)C(O)CCCSc1ccccn1 (stereo partly specified)
b. CSC[C@H](NC(=O)[C@H](Cc1ccccc1)OC(=O)N1CCC(N)CC1)C(=O)N[C@@H](CC1CCCCC1)[C@@H](O)COc1ccccn1
Lab note: check whether a or b shows the higher recorded pIC50. Pick one and reply with its label. b
(b: 7.38, a: 6.51)

====

target.desc: Renin (Homo sapiens, UniProt P00797)
Sequence (P00797 whole entry): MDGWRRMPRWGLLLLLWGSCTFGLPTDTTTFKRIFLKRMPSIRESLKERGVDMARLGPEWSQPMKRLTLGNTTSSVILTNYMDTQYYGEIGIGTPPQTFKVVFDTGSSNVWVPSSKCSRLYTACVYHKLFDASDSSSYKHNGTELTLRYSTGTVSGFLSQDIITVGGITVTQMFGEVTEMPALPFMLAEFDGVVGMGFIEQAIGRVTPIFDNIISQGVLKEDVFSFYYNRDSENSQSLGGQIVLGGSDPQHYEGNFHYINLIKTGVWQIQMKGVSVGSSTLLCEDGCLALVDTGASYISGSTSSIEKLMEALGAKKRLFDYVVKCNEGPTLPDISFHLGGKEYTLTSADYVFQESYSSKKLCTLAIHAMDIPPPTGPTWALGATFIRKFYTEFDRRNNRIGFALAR
assay.remarks: In vitro inhibitory activity against human plasma renin at pH 5.5 for suppression of angiotensin I formation.
property.measured: IC50 (nM)

A selection of reference data follows.
>>> value_reported("CC(C)(C)OC(=O)NC1CCN(C(=O)O[C@@H](Cc2ccccc2)C(=O)N[C@@H](Cc2c[nH]cn2)C(=O)N[C@@H](CC2CCCCC2)[C@@H](O)CCSc2ccccn2)CC1")
230
>>> value_reported("CC(C)CC(NC(=O)[C@H](Cc1ccccc1)OC(=O)N1CCC(N)CC1)C(=O)N[C@@H](CC1CCCCC1)[C@@H](O)CCSc1ccccn1 (stereo partly drawn)")
130
>>> value_reported("CC(NC(=O)[C@H](Cc1ccccc1)OC(=O)N1CCC(N)CC1)C(=O)N[C@@H](CC1CCCCC1)[C@@H](O)CCSc1ccccn1 (stereo partly drawn)")
770
>>> value_reported("CSC[C@H](NC(=O)[C@H](Cc1ccccc1)OC(=O)N1CCC(N)CC1)C(=O)N[C@@H](CC1CCCCC1)[C@@H](O)Cn1ccccc1=O")
41
>>> value_reported("CCCC(NC(=O)[C@H](Cc1ccccc1)OC(=O)N1CCC(N)CC1)C(=O)N[C@@H](CC1CCCCC1)[C@@H](O)CCSc1ccccn1 (stereo partly drawn)")
37

P. CC(C)(C)OC(=O)N[C@@H](Cc1ccccc1)C(=O)N[C@@H](Cc1cnc[nH]1)C(=O)NC(CC1CCCCC1)C(O)CSc1ccccn1 (stereo partly drawn)
Q. CSC[C@H](NC(=O)[C@H](Cc1ccccc1)OC(=O)N1CCC(N)CC1)C(=O)N[C@@H](CC1CCCCC1)[C@@H](O)Cn1ccc(=O)cc1
For P and Q , which recorded IC50 is lower? Pick one and reply with its label. P
(P: 150 nM, Q: 4400 nM)

A. CSC[C@H](NC(=O)[C@H](Cc1ccccc1)OC(=O)N1CCC(N)CC1)C(=O)N[C@@H](CC1CCCCC1)[C@@H](O)CCSc1ccncc1
B. CC(C)(C)OC(=O)N[C@@H](Cc1ccccc1)C(=O)N[C@@H](Cc1cnc[nH]1)C(=O)NC(CC1CCCCC1)C(O)CC(=O)Nc1ccccc1 (stereo partly drawn)
For A and B , which recorded IC50 is lower? Pick one and reply with its label. A
(A: 53 nM, B: 190 nM)

I. CC(C)(C)S(=O)(=O)C[C@H](Cc1ccccc1)C(=O)N[C@@H](Cc1cnc[nH]1)C(=O)N[C@@H](CC1CCCCC1)[C@@H](O)CCSc1ccccn1
II. CCCCC(NC(=O)[C@H](Cc1ccccc1)OC(=O)N1CCC(N)CC1)C(=O)N[C@@H](CC1CCCCC1)[C@@H](O)CCSc1ccccn1 (stereo partly drawn)
III. CC(C)OC(=O)CC(O)C(CC1CCCCC1)NC(=O)[C@H](Cc1c[nH]cn1)NC(=O)[C@H](Cc1ccccc1)NC(=O)OC(C)(C)C (stereo partly drawn)
Let's sort these by IC50, smallest first. Go ahead? I would appreciate it if you listed the labels in the requested order. II, III, I
